Assay: Study 1A single-rising-dose pharmacokinetics
Format: in vivo, human
Conditions: male, human, plasma, oral, 10 mg
experimental.endpoint: Tmax (h)
Give the number; h is assumed, so skip it.

Which Tmax is reported for this compound? Cc1ccc(Sc2ccccc2N2CCNCC2)c(C)c1 [Vortioxetine] 10

----------
Assay: Study 2 single-dose pharmacokinetics in elderly adults
Assay type: in vivo, human
Conditions: female, human, plasma, oral, 10 mg
experimental.endpoint: AUC(0-inf)
Remember to follow the number with its unit.

# AUC(0-inf) lookup, item Cc1ccc(Sc2ccccc2N2CCNCC2)c(C)c1 305 ng·h/mL

----------
Assay: Study 1B multiple-dose pharmacokinetics
Type: in vivo, human
Details: female, human, plasma, oral, 5 mg, AUC0–24, day 1, female, 5 mg daily, fed, n = 5, mean (SD)
experimental.endpoint: AUC(0-t) (µg·h/mL)
Only the number, expressed in µg·h/mL, is required.

Please look up its AUC(0-t): Cc1ccc(Sc2ccccc2N2CCNCC2)c(C)c1 0.0471

Origin of measurements: paper PMC5900865
